Reference for the values: patent US12144365B2

METHOD: Potency loss of actives infused into isomalt based candy at 300° F.
Format: physicochemical
ASSAY METRIC: Potency loss %: 300° F. for 15 minutes, Infused by Quillaja extract emulsion (%)
Answer with a number only, understood to be in %.

input: # query: Potency loss %: 300° F. for 15 minutes, Infused by Quillaja extract emulsion of entry C=CC(=C)CCC=C(C)C
output: −51

input: # query: Potency loss %: 300° F. for 15 minutes, Infused by Quillaja extract emulsion of entry C=C(C)[C@@H]1CCC(C)=C[C@H]1c1c(O)cc(CCCCC)cc1O [CBD, cannabidiol, reference compound]
output: −4

input: # query: Potency loss %: 300° F. for 15 minutes, Infused by Quillaja extract emulsion of entry CCCCCc1cc(O)c2c(c1)OC(C)(C)c1ccc(C)cc1-2
output: −1

input: # query: Potency loss %: 300° F. for 15 minutes, Infused by Quillaja extract emulsion of entry CCCCCc1cc(O)c2c(c1)OC(C)(C)[C@@H]1CCC(C)=C[C@@H]21 [THC, tetrahydrocannabinol, reference compound]
output: −25

input: # query: Potency loss %: 300° F. for 15 minutes, Infused by Quillaja extract emulsion of entry C=C(C)[C@H]1CC=C(C)CC1
output: −69
